Numbers sourced from PubChem BioAssay (EPA / NIEHS).

# System: IYD (gene 389434)
# experiment: CCTE_GLTED_hIYD: CCTE's human Iodotyrosine Deiodinase (xIYD) Inhibition Assay, Great Lakes Toxicology and Ecology Division (GLTED) Lab (AID 2284317);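 note: cell-free human IYD enzyme made in baculovirus insect cells; iodide freed from monoiodotyrosine measured by cerium arsenite color change at 420 nm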
Activity calls are given as the source filed them. Rule for the calls: active = hit-call score of the fitted dose curve at least 0.9, where 1 is the maximum; inconclusive = response in the unintended direction; inactive = score below 0.9.
// classify into active, inactive

INSERT INTO assay_data (compound, labelvalue) VALUES
  ('Nc1ccc2cc(S(=O)(=O)O)cc(O)c2c1N=Nc1ccccc1C(F)(F)F', 'active'),
  ('COc1ccccc1N=Nc1c(S(=O)(=O)O)cc2cc(S(=O)(=O)O)cc(NC(C)=O)c2c1O', 'active'),
  ('CCc1cc(Cc2cc(CC)cc(C(C)(C)C)c2O)c(O)c(C(C)(C)C)c1', 'active');

How was CCCCCCCCCCCCCCN(CCO)CCO classified in this test?
active
